Experiment: MRP1 drug-resistance reversers in H69AR cells – cell-based, doxorubicin co-treatment, pilot screen (AID 601)
Details: H69AR cells + 2 uM doxorubicin, CellTiter-Glo, 72 h; measured here: viability with 2 uM doxorubicin; at 10 µM; stronger effect = lower value
Hi there, I'd appreciate the recorded viability for every entry that follows.
Value expressed in %; do not type the unit.

Reported viability of Cc1cc2c(c(=O)n1CCN(C)C)C(c1ccncc1)C(C#N)=C(N)O2 (stereo unspecified) : 102

Reported viability of `O=C(NCc1ccco1)c1cccc(-c2nnc(-c3ccccc3)o2)c1` : 80.3

Reported viability of `CCOc1ncccc1C(=O)Nc1ccc2c(C)cc(=O)oc2c1` : 92.4

Reported viability of `CCOc1ccc2cc(C#N)c(SCC(=O)N3CCC(C)CC3)nc2c1` : 33.9

Reported viability of `Cc1nc2ccccc2c(=O)n1NC(=O)c1ccc(F)cc1Cl` : 98.4

Reported viability of `Cc1cc(C)c(OCC(=O)Nc2cccc(O)c2)cc1C` : 97.7

Reported viability of `CCc1c(C(=O)Nc2cc(C)ccc2OC)[nH]c(C)c1C(C)=O` : 83.5

Reported viability of `CCOc1ccccc1OCCn1nnc2ccccc21` : 80.3

Reported viability of `COc1ccc(CCNS(=O)(=O)c2ccc3c(c2)OCCO3)cc1` : 92.6

Reported viability of `CC(=O)Nc1ccc(NC2=CC(=O)CC(C)(C)C2)cc1` : 85

Reported viability of `CCOC(=O)c1c(COC(=O)c2ccco2)nc2ccccc2[n+]1[O-]` : 84.6

Reported viability of `CCc1nccn1S(=O)(=O)c1ccc2ccc(C)cc2c1` : 93.5

Reported viability of CC(NS(=O)(=O)c1ccc(OCC(=O)N2CCOCC2)c(Cl)c1)c1ccccc1 (stereo unspecified) : 94.4

Reported viability of `CC1(C)CC(=O)c2cc(OCC(=O)N3CCN(c4ccccc4F)CC3)ccc2O1` : 88.9

Reported viability of `CCSc1ccccc1C(=O)NCc1ccc(S(N)(=O)=O)cc1` : 87.5

Reported viability of `COc1cc(NS(=O)(=O)c2cccc3nsnc23)c(C(=O)O)cc1OC` : 93.4

Reported viability of `COc1cccc(-n2c(SCC(=O)OC(C)C)nnc2-c2cccnc2)c1` : 93.2

Reported viability of `CN(C)S(=O)(=O)N1CCN(S(=O)(=O)c2ccc(F)cc2)CC1` : 96.1

Reported viability of `COC(=O)C1(C(=O)OC)Sc2ccccc2C1=O` : 90.8

Reported viability of CC(NCCC(c1ccccc1)c1ccccc1)c1ccccc1 (stereo unspecified) : 2.41

Reported viability of `COc1ccc(C(F)(F)F)cc1NC(=O)c1nc2nc(C)cc(C(F)F)n2n1` : 83.7

Reported viability of `O=C(O)c1ccc(-n2nnnc2Oc2ccccc2C(=O)N2CCOCC2)cc1` : 85.7

Reported viability of `Cc1ccc(S(=O)(=O)NCCc2ccncc2)cc1` : 100

Reported viability of `COC(=O)CN(c1ccc2c(c1)OCO2)S(C)(=O)=O` : 97.9

Reported viability of `O=C1C=C(NCc2ccco2)C2(CCCCC2)O1` : 82.2

Reported viability of `c1ccc(-c2nc3nonc3c3nc4ccccc4n23)cc1` : 90.8

Reported viability of Cc1ccc(CC23CN4CCN(CC(C4)C2O)C3)c(C)c1 (stereo unspecified) : 86.1

Reported viability of `CCNc1ccc2c(Cl)cc(=O)oc2c1` : 74.5

Reported viability of `Cc1ccc(-c2ccc(/C=N/n3cnnc3)o2)cc1Cl` : 96.3

Reported viability of `Nc1nc(CN2CCOCC2)cs1` : 96.1

Reported viability of COc1ccc(N2C(=O)CC(N3CCN(S(=O)(=O)c4c(F)cccc4F)CC3)C2=O)cc1OC (stereo unspecified) : 94.3

Reported viability of `Cc1ccc2nc(CSc3nnc(-c4ccco4)n3-c3ccccc3)cc(=O)n2c1` : 98

Reported viability of COC(=O)c1ccc(NC2(C#N)C(=O)Nc3ccccc32)cc1 (stereo unspecified) : 58.2

Reported viability of `CC(=O)Nc1ccc(NC(=O)c2ccccc2F)cc1` : 92.2

Reported viability of `Cc1cc(C)c(C(=O)CSc2nnc(-c3ccccc3Br)o2)cc1C` : 75.8

Reported viability of Cc1ccc(NC(=O)C2CCCNC2=O)nc1 (stereo unspecified) : 94
